- study_system: CCR2 (Homo sapiens, UniProt P41597)
- Construct: cell membranes containing 6×10^6cells/ml equivalent; endogenous in cells; host or cells: THP1 cells (membrane fragments)
- protocol: hMCP-1 THP1 receptor-binding assay (125I-labeled MCP-1, SPA, THP1 cell membranes)
- assay_context: 250 pM 125I-labeled MCP-1, THP1 cell membranes, room temperature 16 hours; read-out: CCR2 Binding pIC50 (converted)
measured_property: IC50 (nM)

[[record]]
compound = "Cc1ccc(NC(=O)N2CCN(C(=O)[C@H]3CN(C(C)(C)C)CCN3)CC2)cc1C(F)(F)F [Example 6]"
study_system = "CCR2 (Homo sapiens, UniProt P41597)"
result = 1.82

[[record]]
compound = "CC(C)(C)N1CCN[C@@H](C(=O)N2CCN(C(=O)Nc3ccc(C#N)c(C(F)(F)F)c3)CC2)C1 [Example 8]"
study_system = "CCR2 (Homo sapiens, UniProt P41597)"
result = 7.24

[[record]]
compound = "Cc1nc(NC(=O)N2CCN(C(=O)[C@H]3CN(C(C)(C)C)CCN3)CC2)sc1Cl [Example 16]"
study_system = "CCR2 (Homo sapiens, UniProt P41597)"
result = 1.26

[[record]]
compound = "CC(C)(C)N1CCN[C@@H](C(=O)N2CCN(C(=O)Nc3ccc(F)c(C(F)(F)F)c3)CC2)C1 [Example 5]"
study_system = "CCR2 (Homo sapiens, UniProt P41597)"
result = 2


---

- study_system: CCR2 (Homo sapiens)
- Construct: cell membranes containing 6×10^6cells/ml equivalent; endogenous in cells; host or cells: THP1 cells (membrane fragments)
- Sequence (P41597 1-360 isoform P41597-2): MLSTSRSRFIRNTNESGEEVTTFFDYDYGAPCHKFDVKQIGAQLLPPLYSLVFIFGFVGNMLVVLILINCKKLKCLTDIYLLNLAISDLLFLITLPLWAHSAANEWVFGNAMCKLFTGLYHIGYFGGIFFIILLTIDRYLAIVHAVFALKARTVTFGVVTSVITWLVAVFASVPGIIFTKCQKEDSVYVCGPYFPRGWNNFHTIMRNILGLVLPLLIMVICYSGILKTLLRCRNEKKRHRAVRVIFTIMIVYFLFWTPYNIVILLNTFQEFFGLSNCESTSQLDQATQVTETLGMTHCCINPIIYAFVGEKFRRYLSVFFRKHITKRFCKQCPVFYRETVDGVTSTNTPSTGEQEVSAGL
- protocol: hMCP-1 THP1 receptor-binding assay (125I-labeled MCP-1, SPA, THP1 cell membranes)
- assay_context: 250 pM 125I-labeled MCP-1, THP1 cell membranes, room temperature 16 hours; read-out: CCR2 Binding pIC50 (converted)
- Experimental: hMCP-1 THP1 Receptor-Binding Assay i) Preparation of Membrane Fragments THP1 cells were grown in RPMI (Sigma) supplemented with 10% foetal calf serum, 2 mM glutamine (Gibco), 100 units/ml Penicillin and 100 μg/ml Streptomycin (Invitrogen). Membrane fragments were prepared using cell lysis/differential centrifugation methods as described previously (Siciliano et al., 1990, J. Biol. Chem., 265, 19658). […]
Below, each of the molecules is paired with its reported IC50 value.
measured_property: IC50 (nM)

[[record]]
molecule = "CC(C)(C)N1CCN[C@@H](C(=O)N2CCN(C(=O)Nc3cccc(Cl)c3)CC2)C1 [Example 2]"
value_operator = "="
result = 2.57

[[record]]
molecule = "CC(C)(C)N1CCN[C@@H](C(=O)N2CCN(C(=O)Nc3ccc(OC(F)(F)F)c(Cl)c3)CC2)C1 [Example 13]"
value_operator = "<"
result = 0.871

[[record]]
molecule = "CC(C)(C)N1CCN[C@@H](C(=O)N2CCN(C(=O)Nc3cccc(SC(F)(F)F)c3)CC2)C1 [Example 3]"
value_operator = "="
result = 2.82

[[record]]
molecule = "CCc1nc(NC(=O)N2CCN(C(=O)[C@H]3CN(C(C)(C)C)CCN3)CC2)sc1Cl [Example 15]"
value_operator = "<"
result = 0.447

[[record]]
molecule = "Cc1cc(NC(=O)N2CCN(C(=O)[C@H]3CN(C(C)(C)C)CCN3)CC2)ccc1Cl [Example 11]"
value_operator = "="
result = 2.29

[[record]]
molecule = "CC(C)(C)N1CCN[C@@H](C(=O)N2CCN(C(=O)Nc3ccc(Br)cc3)CC2)C1 [Example 4]"
value_operator = "="
result = 6.76

[[record]]
molecule = "CC(C)(C)N1CCN[C@@H](C(=O)N2CCN(C(=O)Nc3cccc(C(F)(F)F)c3)CC2)C1 [Example 1]"
value_operator = "="
result = 3.09

[[record]]
molecule = "CC(C)(C)N1CCN[C@@H](C(=O)N2CCN(C(=O)Nc3cccc(OC(F)(F)C(F)F)c3)CC2)C1 [Example 10]"
value_operator = "="
result = 6.76

[[record]]
molecule = "CC(C)(C)N1CCN[C@@H](C(=O)N2CCN(C(=O)Nc3ccc(Cl)c(F)c3)CC2)C1 [Example 9]"
value_operator = "="
result = 2.57

[[record]]
molecule = "CC(C)(C)N1CCN[C@@H](C(=O)N2CCN(C(=O)Nc3nc(C(F)(F)F)c(Cl)s3)CC2)C1 [Example 17]"
value_operator = "<"
result = 0.447

[[record]]
molecule = "CC(C)(C)N1CCN[C@@H](C(=O)N2CCN(C(=O)Nc3cccc(OCc4ccccc4)c3)CC2)C1 [Example 12]"
value_operator = "="
result = 1.82

[[record]]
molecule = "CC(C)(C)N1CCN[C@@H](C(=O)N2CCN(C(=O)Nc3ccc(F)c(Cl)c3)CC2)C1 [Example 7]"
value_operator = "="
result = 8.51

[[record]]
molecule = "Cc1nc(NC(=O)N2CCN(C(=O)[C@H]3CN(C(C)(C)C)CCN3)CC2)sc1Br [Example 14]"
value_operator = "="
result = 2.75

